system: HCC-2998 colon; experiment: NCI-60 one-dose screen, 48 h; conditions: 10 µM unless noted
The panel holds about 83,000 compounds, 20% with a hit somewhere; the sample as a whole holds those more often. Active and inactive are the calls of the source. How the source made its calls: active means growth percent below 10; inactive means the rest.
Outcomes: True for active, False for inactive

# Compound, System under test, Category
data = [
    ("C/C(=C\\c1ccn(-c2ccc(N)c(C(F)(F)F)c2)n1)[C@@H]1C[C@@H]2O[C@]2(C)CCC[C@H](C)[C@H](O)[C@@H](C)C(=O)C(C)(C)[C@@H](O)CC(=O)O1", "HCC-2998 colon", "True"),
    ("C[C@]12C[C@H](c3ccoc3)OC(=O)[C@H]1CC[C@@]1(C)[C@@H]2[C@H]2C=C[C@]1(O)C(=O)O2", "HCC-2998 colon", "False"),
    ("Cc1cc2c(cc1-c1ccnc(/C=C/C(=O)O)c1)C(C)(C)CCC2(C)C", "HCC-2998 colon", "False"),
    ("CCCCS(=O)(=O)Cl", "HCC-2998 colon", "False"),
    ("CCCN1C(=O)NC(=O)C(CC)(N2C(=O)c3c(F)c(F)c(F)c(F)c3C2=O)C1=O (stereo unspecified)", "HCC-2998 colon", "True"),
    ("Nc1cccnc1", "HCC-2998 colon", "False"),
    ("Cc1cc(N)ccc1N", "HCC-2998 colon", "False"),
    ("N#CCc1ccc(CC#N)cc1", "HCC-2998 colon", "False"),
    ("N#CCN(CC#N)[N+](=O)[O-]", "HCC-2998 colon", "False"),
    ("C[C@]12CC[C@@H](OC(=O)N(CCCl)N=O)C[C@@H]1CC[C@@H]1[C@@H]2CC[C@]2(C)C(=O)CC[C@@H]12", "HCC-2998 colon", "False"),
    ("CN(C)C(=S)SSC(=S)N(C)C", "HCC-2998 colon", "False"),
]
